Measured values drawn from patent US20210024639A1 for this set.

Form field: IMAX (maximum % competition) (one value per entry).
- experimentalTarget: T1, human MET-Fc chimeric protein (R&D Systems) (human, UniProt P08581 25-932)
- T1 construct: extracellular domain; bought (R&D Systems); also called hMET; not shown: Fc portion of human IgG1
- T1 sequence (P08581 25-932, change not shown): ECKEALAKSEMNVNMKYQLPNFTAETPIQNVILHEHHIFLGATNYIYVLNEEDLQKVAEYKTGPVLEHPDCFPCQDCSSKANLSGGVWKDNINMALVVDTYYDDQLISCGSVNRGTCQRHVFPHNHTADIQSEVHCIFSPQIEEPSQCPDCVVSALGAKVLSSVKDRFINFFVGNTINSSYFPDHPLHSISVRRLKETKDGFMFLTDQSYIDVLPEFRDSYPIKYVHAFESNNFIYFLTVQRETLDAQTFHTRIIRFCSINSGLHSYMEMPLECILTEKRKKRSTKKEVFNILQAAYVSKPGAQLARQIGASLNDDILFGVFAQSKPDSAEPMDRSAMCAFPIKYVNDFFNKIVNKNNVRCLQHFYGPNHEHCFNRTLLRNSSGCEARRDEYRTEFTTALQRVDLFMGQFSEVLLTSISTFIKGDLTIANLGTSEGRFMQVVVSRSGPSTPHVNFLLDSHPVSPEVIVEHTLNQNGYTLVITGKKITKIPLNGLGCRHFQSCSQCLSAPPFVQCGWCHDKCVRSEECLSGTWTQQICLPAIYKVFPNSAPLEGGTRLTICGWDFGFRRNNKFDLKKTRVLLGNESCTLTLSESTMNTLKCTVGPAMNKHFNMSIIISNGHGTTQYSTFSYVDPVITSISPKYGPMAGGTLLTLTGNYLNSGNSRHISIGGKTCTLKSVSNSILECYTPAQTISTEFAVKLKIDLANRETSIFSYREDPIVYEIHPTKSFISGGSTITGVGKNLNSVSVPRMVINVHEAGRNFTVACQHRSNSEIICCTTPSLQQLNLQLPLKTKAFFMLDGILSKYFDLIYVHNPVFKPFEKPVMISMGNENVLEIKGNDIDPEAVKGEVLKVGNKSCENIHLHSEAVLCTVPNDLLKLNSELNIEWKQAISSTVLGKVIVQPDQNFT
- protocolSummary: competition ELISA, hMET-Fc in solid phase, competitor 0.3 nM biotinylated hHGF
Output spec: scalar in %, unitless text.

Some entries whose results are on file:
{"binder": "chimeric llama-human IgG1 mAb 71G3 (antibody, V domains shown) VH: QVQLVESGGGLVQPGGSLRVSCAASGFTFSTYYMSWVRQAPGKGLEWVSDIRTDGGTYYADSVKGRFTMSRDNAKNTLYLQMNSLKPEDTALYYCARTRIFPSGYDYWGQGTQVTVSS VL: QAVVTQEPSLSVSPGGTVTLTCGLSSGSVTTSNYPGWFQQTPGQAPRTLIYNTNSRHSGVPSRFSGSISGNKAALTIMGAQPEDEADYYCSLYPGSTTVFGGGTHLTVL", "resultUnits": "%", "IMAX (maximum % competition)": 63.2}
{"binder": "chimeric llama-human IgG1 mAb 71C3 (antibody, V domains shown) VH: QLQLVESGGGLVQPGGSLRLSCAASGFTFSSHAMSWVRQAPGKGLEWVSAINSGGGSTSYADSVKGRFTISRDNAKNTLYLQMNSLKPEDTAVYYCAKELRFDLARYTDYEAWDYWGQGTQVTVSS VL: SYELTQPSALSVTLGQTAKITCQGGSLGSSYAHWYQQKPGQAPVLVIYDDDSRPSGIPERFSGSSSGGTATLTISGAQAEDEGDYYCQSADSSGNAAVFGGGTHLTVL", "resultUnits": "%", "IMAX (maximum % competition)": 93.6}
{"binder": "chimeric llama-human IgG1 mAb 71D6 (antibody, V domains shown) VH: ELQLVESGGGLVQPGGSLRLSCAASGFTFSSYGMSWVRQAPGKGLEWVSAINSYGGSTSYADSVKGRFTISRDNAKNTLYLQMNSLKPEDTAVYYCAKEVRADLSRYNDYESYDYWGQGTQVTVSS VL: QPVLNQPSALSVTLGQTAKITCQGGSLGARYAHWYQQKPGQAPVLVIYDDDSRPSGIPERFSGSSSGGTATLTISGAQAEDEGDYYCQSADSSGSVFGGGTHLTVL", "resultUnits": "%", "IMAX (maximum % competition)": 98.3}

If you can, please state the reported IMAX (maximum % competition) value of chimeric llama-human IgG1 mAb 72F8 (antibody, V domains shown) VH: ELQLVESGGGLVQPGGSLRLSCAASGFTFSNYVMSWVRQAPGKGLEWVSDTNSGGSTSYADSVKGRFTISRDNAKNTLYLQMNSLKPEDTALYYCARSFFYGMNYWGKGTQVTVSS VL: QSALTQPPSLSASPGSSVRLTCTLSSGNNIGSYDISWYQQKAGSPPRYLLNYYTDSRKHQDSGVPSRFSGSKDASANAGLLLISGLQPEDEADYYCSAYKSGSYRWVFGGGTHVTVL .
77.3

If you can, please state the reported IMAX (maximum % competition) value of chimeric llama-human IgG1 mAb 71D4 (antibody, V domains shown) VH: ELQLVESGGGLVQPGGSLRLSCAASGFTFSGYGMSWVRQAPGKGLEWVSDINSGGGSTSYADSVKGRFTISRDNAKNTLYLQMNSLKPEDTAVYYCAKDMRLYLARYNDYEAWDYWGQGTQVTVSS VL: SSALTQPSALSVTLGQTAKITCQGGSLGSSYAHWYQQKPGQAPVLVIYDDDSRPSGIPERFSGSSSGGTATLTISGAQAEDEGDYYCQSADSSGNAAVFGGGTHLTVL .
95.6
